Target: tKSI (ketosteroid isomerase from Comamonas testosteroni) (Comamonas testosteroni, UniProt P00947, D38N)
Sequence (P00947 whole entry D38N): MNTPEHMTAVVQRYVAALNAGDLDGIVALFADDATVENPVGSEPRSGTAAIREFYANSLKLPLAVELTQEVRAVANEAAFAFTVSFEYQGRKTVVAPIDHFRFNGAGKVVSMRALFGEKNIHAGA
Assay: biochemical
experimental-readout: pKd
Keep in mind that pKd stands for -log10 of concentration in molar terms.

stdin: Sample `C[C@]12CCC(=O)C=C1CC[C@@H]1[C@@H]2CC[C@]2(C)C(=O)CC[C@@H]12` — what was its pKd?
stdout: 4.80

###

Target: pKSI (ketosteroid isomerase from Pseudomonas putida) (Pseudomonas putida, UniProt P07445, D40A)
Sequence (P07445 whole entry D40A): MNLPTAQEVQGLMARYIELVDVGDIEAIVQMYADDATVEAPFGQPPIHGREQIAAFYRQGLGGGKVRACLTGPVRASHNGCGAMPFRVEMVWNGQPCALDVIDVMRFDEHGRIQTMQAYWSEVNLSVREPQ
Assay: intrinsic fluorescence quenching
experimental-readout: pKd
Keep in mind that pKd stands for -log10 of concentration in molar terms.

stdin: Sample `C[C@]12CCC(=O)C=C1CC[C@@H]1[C@@H]2CC[C@]2(C)C(=O)CC[C@@H]12` — what was its pKd?
stdout: 6.41
